These entries and their values trace back to the supplement of paper PMC10338343.

System: MILI (PIWIL2) piRISC loaded with Kctd7 piRNA (26 nt);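 further: 1 nM active piRISC with 0.1 nM target library at 33 °C single turnover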
Assay: pre-steady-state target cleavage rate (min^-1); MIWI and MILI are mouse PIWI proteins and EfPiwi is from a freshwater sponge; tags in brackets are library labels; higher = faster piRNA-guided slicing of the target;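 further: 1 nM active piRISC with 0.1 nM target library at 33 °C single turnover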
Conditions: guide: Kctd7 piRNA 5'p-UGUUAAUCUCUCAGAGAAGGUGACAG; auxiliary factor: 500 nM mouse GTSF1
In all, about 3,700 sequences were measured (“pre-steady-state target cleavage rate”: median about 0.02, highest 2% from about 0.23 on). Only a selection was taken, and the highest values are over-represented in it overall.
Assign 1.0 to entries whose pre-steady-state target cleavage rate meets or exceeds 0.2; assign 0.0 to the rest.

Could you verify whether the entry UAGUCUGUCUCCUUCUCUGAGAGAUUAAGA shows pre-steady-state target cleavage rate of no less than 0.2?
0.0

Could you verify whether the entry UAGUCUGUCACCUUCUCUGAGAGAUAAACA shows pre-steady-state target cleavage rate of no less than 0.2?
0.0

Could you verify whether the entry UAGUGUGUCACCUUUUCUGAGAGAUUAACA shows pre-steady-state target cleavage rate of no less than 0.2?
1.0

Could you verify whether the entry UAGUGACACACCUUCUCUGAGACAUUAACA shows pre-steady-state target cleavage rate of no less than 0.2?
0.0

Could you verify whether the entry UAGUGACUCACCUUCUCGAGAGAUUAACA shows pre-steady-state target cleavage rate of no less than 0.2?
0.0

Could you verify whether the entry UAGUGACAGUGGAAGAGUGAGGAGAUUAACA shows pre-steady-state target cleavage rate of no less than 0.2?
0.0

Could you verify whether the entry UAGUGUGUCACCUUCUCCGAGAGAUUAACA shows pre-steady-state target cleavage rate of no less than 0.2?
1.0

Could you verify whether the entry UAGUCUGUCACCUUCUCUGAGAGAUUAAUA shows pre-steady-state target cleavage rate of no less than 0.2?
0.0

Could you verify whether the entry UAGUGUCAGACCUUCUCUGAGAGAUUAACA shows pre-steady-state target cleavage rate of no less than 0.2?
0.0

Could you verify whether the entry UAGUGACAGUGGAACACUGAGACAUUAACA shows pre-steady-state target cleavage rate of no less than 0.2?
0.0

Could you verify whether the entry UAGUCACACACCUUCUCUGAGAGAUUAACA shows pre-steady-state target cleavage rate of no less than 0.2?
0.0

Could you verify whether the entry UAGUGACACACCUUCAGUGAGAGAUUAACA shows pre-steady-state target cleavage rate of no less than 0.2?
0.0

Could you verify whether the entry UAGUGUGUCACCUUCUCUGAGAGAUUAACG [g2:g25:cont:t1G] shows pre-steady-state target cleavage rate of no less than 0.2?
1.0

Could you verify whether the entry UAGUGAGAUCACCUUCUCUGAGAGAUUAACA shows pre-steady-state target cleavage rate of no less than 0.2?
0.0

Could you verify whether the entry UAGUGUGUCACCUUUCUGAGAGAUUAACA shows pre-steady-state target cleavage rate of no less than 0.2?
0.0

Could you verify whether the entry UAGUGACUCACCUUCUCUGAGAGAUUAUACA shows pre-steady-state target cleavage rate of no less than 0.2?
0.0

Could you verify whether the entry UAGUGACAGACCUUCUCUGAGACGAUUAACA shows pre-steady-state target cleavage rate of no less than 0.2?
0.0

Could you verify whether the entry UAGUGAGUCACCUUCUCAGAGAGAUUAACA shows pre-steady-state target cleavage rate of no less than 0.2?
0.0

Could you verify whether the entry UAGUGAGUCACCCUUCUCUGAGAGAUUAACA shows pre-steady-state target cleavage rate of no less than 0.2?
0.0

Could you verify whether the entry UAGUCUGUCACCUUCAGAGAGAGAUUAACA shows pre-steady-state target cleavage rate of no less than 0.2?
0.0

Could you verify whether the entry UAGUGAGUCACCUUCUCUGAGAGAUAUACA shows pre-steady-state target cleavage rate of no less than 0.2?
0.0

Could you verify whether the entry UAGUGACUCACCUUCUCUGAGAGAGUUAACA shows pre-steady-state target cleavage rate of no less than 0.2?
0.0

Could you verify whether the entry UAGUGAGUCAGCUUCUCUGAGAGAUUUACA shows pre-steady-state target cleavage rate of no less than 0.2?
0.0

Could you verify whether the entry UAGUGACUCACCUUCUCUGAGAGAUUAUGA shows pre-steady-state target cleavage rate of no less than 0.2?
0.0

Could you verify whether the entry UAGUGACAGACCUUCUCUGAGAGGUUAACA shows pre-steady-state target cleavage rate of no less than 0.2?
1.0

Could you verify whether the entry UAGUGUGUCAGCUUCUCUGUGAGAUUAACA shows pre-steady-state target cleavage rate of no less than 0.2?
0.0

Could you verify whether the entry UAGUGAGUCACCUUCUCUGAGAUAUUAACA shows pre-steady-state target cleavage rate of no less than 0.2?
0.0

Could you verify whether the entry UAGUGAGUCACCUUCUCUGAGAGAUAACA shows pre-steady-state target cleavage rate of no less than 0.2?
0.0

Could you verify whether the entry UAGUGUGUCACCAUCUCUGAGAGAUUAUGA shows pre-steady-state target cleavage rate of no less than 0.2?
0.0

Could you verify whether the entry UAGUGAGUCACCUUCUCUGAGAGUUUUACA shows pre-steady-state target cleavage rate of no less than 0.2?
1.0

Could you verify whether the entry UAGUGAGUCACCUUCUGAGAGAGAUUAACA shows pre-steady-state target cleavage rate of no less than 0.2?
0.0

Could you verify whether the entry UAGUGACAGUCAUUCUCUGAGAGAUUAACA shows pre-steady-state target cleavage rate of no less than 0.2?
0.0

Could you verify whether the entry UAGUCAGUCACCUUCUCUGAGAGAUUAACA shows pre-steady-state target cleavage rate of no less than 0.2?
1.0

Could you verify whether the entry UAGUGACAGUGCUUCUCUGAGAGAUUAACC [g2:g19:cont:t1C] shows pre-steady-state target cleavage rate of no less than 0.2?
0.0

Could you verify whether the entry UAGUGACUCACCUUGUCUGAGACAUUAACA shows pre-steady-state target cleavage rate of no less than 0.2?
0.0

Could you verify whether the entry UAGUGUGUCACCUUCUCUGAGAGCAUUAACA shows pre-steady-state target cleavage rate of no less than 0.2?
0.0

Could you verify whether the entry UAGUGAGUCACCUUCUCUGAGAGAUUACACA shows pre-steady-state target cleavage rate of no less than 0.2?
0.0

Could you verify whether the entry UAGUGAGUCACCUUCUUCUGAGAGAUUAACA shows pre-steady-state target cleavage rate of no less than 0.2?
0.0

Could you verify whether the entry UAGUGUGUCACCUUCUCUGAGAGAUUAACU [g2:g25:cont:t1U] shows pre-steady-state target cleavage rate of no less than 0.2?
0.0

Could you verify whether the entry UAGUGAGUGACCUUGUCUGAGAGAUUAACA shows pre-steady-state target cleavage rate of no less than 0.2?
0.0

Could you verify whether the entry UAGUGAGUCACCUUCUCUGAGAGAUUACCA shows pre-steady-state target cleavage rate of no less than 0.2?
1.0

Could you verify whether the entry UAGUGAGUCACCUUCUCUGAGAGAUAUAACA shows pre-steady-state target cleavage rate of no less than 0.2?
1.0

Could you verify whether the entry UAGUGACAGACGUUCUCUCAGAGAUUAACA shows pre-steady-state target cleavage rate of no less than 0.2?
0.0

Could you verify whether the entry UAGUCUGUCACCUUCUCUCUGAGAUUAACA shows pre-steady-state target cleavage rate of no less than 0.2?
0.0

Could you verify whether the entry UAGUAUGUCACCUUCUCUGAGAGAUUAACA shows pre-steady-state target cleavage rate of no less than 0.2?
1.0

Could you verify whether the entry UAGUGAGUCACCUUCUCGAGAGAUUAACA shows pre-steady-state target cleavage rate of no less than 0.2?
0.0

Could you verify whether the entry UAGUCAGUCACCUUCUCUGAGAGAUUAAGA shows pre-steady-state target cleavage rate of no less than 0.2?
0.0

Could you verify whether the entry UAGUCUGUCACCUUCUCUGAGAGUUUUACA shows pre-steady-state target cleavage rate of no less than 0.2?
0.0

Could you verify whether the entry UAGUGACAGUCCUUCUCUGAGUCAUUAAGA shows pre-steady-state target cleavage rate of no less than 0.2?
0.0

Could you verify whether the entry UAGUCUGUCACCUUCUCUGAGAGAUAACA shows pre-steady-state target cleavage rate of no less than 0.2?
0.0
